# target_system: hMC1R (Homo sapiens (Human), UniProt Q01726)
# Sequence (Q01726 whole entry): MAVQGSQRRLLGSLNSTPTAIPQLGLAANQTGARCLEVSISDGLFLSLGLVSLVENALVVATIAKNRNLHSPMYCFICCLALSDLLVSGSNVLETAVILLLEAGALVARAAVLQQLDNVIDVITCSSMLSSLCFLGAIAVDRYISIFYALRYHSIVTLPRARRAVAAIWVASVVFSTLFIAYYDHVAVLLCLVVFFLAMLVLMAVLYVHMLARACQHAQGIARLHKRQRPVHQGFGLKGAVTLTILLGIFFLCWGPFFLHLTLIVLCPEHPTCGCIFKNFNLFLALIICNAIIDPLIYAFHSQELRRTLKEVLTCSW
# test_name: Transactivation test: melanocortin receptors (pCRE-Luc luciferase reporter), hMC1R
# settings: HEK293 transfected with pCRE-Luc and hMC1R; products tested alone (agonist), 6 h incubation; % activity vs NDP-MSH 10 nM; IA: inactive
parameter: EC50 (µM)
The answer is to be given in µM; state only the numeric part.

Known EC50 results, listed for orientation:
>  <record_smiles>
CCCCCC1(c2ccccc2)CN(C(=O)[C@@H](Cc2ccc(Cl)c(Cl)c2)NC(=O)CCc2c[nH]cn2)C1

>  <EC50 [µM]>
2

$$$$
>  <record_smiles>
CCCC(=O)OC1(c2ccc(F)cc2)CN(C(=O)[C@H](Cc2ccc(OC)cc2)NC(=O)[C@H](Cc2c[nH]cn2)NC(=O)c2ccccc2)C1

>  <EC50 [µM]>
2

$$$$
>  <record_smiles>
CCCCCC1(c2ccccc2)CN(C(=O)[C@@H](Cc2ccc(F)cc2)NC(=O)CCc2c[nH]cn2)C1

>  <EC50 [µM]>
1

$$$$
>  <record_smiles>
COc1ccc(C[C@H](NC(=O)[C@H](Cc2c[nH]cn2)NC(=O)c2ccccc2)C(=O)N2CC(O)(C3CCCCC3)C2)cc1

>  <EC50 [µM]>
0.5

$$$$
>  <record_smiles>
CCCCOC1(c2ccccc2)CN(C(=O)[C@@H](Cc2ccc(OC)cc2)NC(=O)CCc2c[nH]cn2)C1

>  <EC50 [µM]>
1

$$$$
>  <record_smiles>
CCCCOC1(c2ccccc2C)CN(C(=O)[C@@H](Cc2ccc(OC)cc2)NC(=O)CCc2cn(C)cn2)C1

>  <EC50 [µM]>
1

$$$$

q: Form field - read-out: EC50; system: hMC1R (Homo sapiens (Human), UniProt Q01726); submitted item: CCCCCC1(c2ccccc2)CN(C(=O)[C@@H](Cc2ccc(OC)cc2)NC(=O)CCc2c[nH]cn2)C1
a: 0.5

----------
# target_system: hMC4R (Homo sapiens (Human))
# Sequence (P32245 whole entry): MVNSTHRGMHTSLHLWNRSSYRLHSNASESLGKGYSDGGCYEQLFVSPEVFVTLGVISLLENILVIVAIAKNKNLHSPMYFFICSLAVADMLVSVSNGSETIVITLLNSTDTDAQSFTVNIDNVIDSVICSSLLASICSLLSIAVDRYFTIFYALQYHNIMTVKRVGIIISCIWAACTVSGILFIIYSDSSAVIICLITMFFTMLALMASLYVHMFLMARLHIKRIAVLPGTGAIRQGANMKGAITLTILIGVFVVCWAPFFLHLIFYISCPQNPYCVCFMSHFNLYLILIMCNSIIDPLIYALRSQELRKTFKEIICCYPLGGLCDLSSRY
# test_name: Transactivation test: melanocortin receptors (pCRE-Luc luciferase reporter), hMC4R
# settings: HEK293 transfected with pCRE-Luc and hMC4R; products tested alone (agonist), 6 h incubation; % activity vs NDP-MSH 10 nM; IA: inactive
parameter: pEC50
The meaning of pEC50 here: minus log10 of the concentration in molar units.

>  <record_smiles>
COc1ccc(C[C@H](NC(=O)CCc2c[nH]cn2)C(=O)N2CC(OCC3CC3)(c3ccccc3C)C2)cc1

>  <target_system>
hMC4R (Homo sapiens (Human))

>  <pEC50>
4.82

$$$$
>  <record_smiles>
CCCCOC1(c2ccccc2C)CN(C(=O)[C@@H](Cc2ccc(OC)cc2)NC(=O)CCc2cn(C)cn2)C1

>  <target_system>
hMC4R (Homo sapiens (Human))

>  <pEC50>
5.10

$$$$
>  <record_smiles>
CCCCCC1(c2ccccc2)CN(C(=O)[C@@H](Cc2ccccc2)NC(=O)CCc2c[nH]cn2)C1

>  <target_system>
hMC4R (Homo sapiens (Human))

>  <pEC50>
5.40

$$$$

Consider now this further molecule.
q: Fill in the recorded pEC50 for this molecule, with hMC4R (Homo sapiens (Human)) as test system: CC#CCC1(c2ccccc2C)CN(C(=O)[C@@H](Cc2ccc(OC)cc2)NC(=O)CCc2c[nH]cn2)C1
a: 5.40

# credit: patent US9630949B2
